- Test system: HL-60(TB) leukemia
- assayInfo: NCI-60 one-dose screen, 48 h (100 = growth as untreated, 0 = no growth, -100 = all killed)
- assayConditions: 10 µM unless noted
The panel holds about 83,000 compounds, 20% with a hit somewhere; the sample as a whole holds those more often.
valueType: growth (%)
Give a bare numeral; the unit % is implied.

OCc1cccnc1
117
Cc1ccc2c(ccc3c[n+]4c5ccccc5ccc4n32)c1
2.59

Per the reported HL-60(TB) leukemia data, O=S(=O)(NCCNc1cc(-c2cn(-c3ccccc3)nc2-c2cccc(O)c2)ccn1)c1ccc(Br)cc1 has growth of 11.1

Per the reported HL-60(TB) leukemia data, N#Cc1ccc(-c2ccc3c(c2)NC(=O)/C3=C\c2ccc[nH]2)cc1 has growth of 101

----------
- Tested on: HL-60(TB) leukemia
- assayInfo: NCI-60 one-dose screen, 48 h
- assayConditions: 10 µM unless noted
This is part of a sample that, as a whole, favours compounds with a hit. Of some 83,000 tested, about 20% had one in any assay. The source made the active and inactive calls. How the source made its calls: active means growth percent below 10; inactive means the rest.
Respond only with the outcome that fits, drawn from 1 for active, -1 for inactive

Per the assay record, what outcome was assigned to O=C(/C(=C/c1ccc([N+](=O)[O-])cc1)SCc1ccc(F)cc1)c1ccc(Cl)cc1 ?
-1

Per the assay record, what outcome was assigned to O=C(CSc1nc2ccc([N+](=O)[O-])cc2[nH]1)Nc1ccc(F)c(Cl)c1 ?
-1

Per the assay record, what outcome was assigned to Cc1ccc(C)c2c1sc1nc3nc4sc5ccccc5n4c(=N)c3c(=O)n12 ?
-1

Per the assay record, what outcome was assigned to OCc1n(Cc2ccc3ccccc3c2)cc[n+]1Cc1ccc2ccccc2c1 ?
1

Per the assay record, what outcome was assigned to O=C(c1ccccc1)c1ccc(Cl)c([N+](=O)[O-])c1 ?
-1

Per the assay record, what outcome was assigned to Cc1cc(C)c(N2C(=O)CC(Sc3ccccc3N)C2=O)c(C)c1 (stereo not drawn) ?
-1

Per the assay record, what outcome was assigned to N=C(N)c1ccc(-c2ccc(-c3cncc4ccccc34)s2)cc1F ?
1

Per the assay record, what outcome was assigned to Nc1nc2ccccc2c2c1S(=O)(=O)c1ccc(Cl)cc1C2=O ?
1

----------
We begin with a simple list: items and their reported growth.
- System: HL-60(TB) leukemia
- assayInfo: NCI-60 one-dose screen, 48 h (100 = growth as untreated, 0 = no growth, -100 = all killed)
- assayConditions: 10 µM unless noted
The panel holds about 83,000 compounds, 20% with a hit somewhere; the sample as a whole holds those more often.
Give a bare numeral; the unit % is implied.

Cc1cc(N(CCNc2ccnc3cc(Cl)ccc23)Cc2ccco2)nc(Cl)n1
-61.9
O=C1/C(=C/c2ccc(O)cc2)Cc2ccc(Cl)cc21
60.1
CCCCn1c(=O)[nH]c(N)c(C(c2ccc(Cl)cc2)c2c(N)[nH]c(=O)n(CCCC)c2=O)c1=O
13.2
O=C(NCc1ccc(Cl)cc1Cl)C1CCC(=O)N1c1cccs1 (stereo not drawn)
99
COC(=O)/C(CCC=C(C)C)=C1\[C@@H](OC(C)=O)C[C@@]2(C)[C@H]1C[C@@H](O)[C@H]1[C@@]3(C)CC[C@H](NCCN)[C@@H](C)[C@@H]3CC[C@@]12C
-47.4
CC(=O)O[C@H]1CC[C@@]2(C)[C@@H](CC[C@@H]3[C@@H]2CC[C@]2(C)C=C(C=O)C[C@@H]32)C1
-37.5
COc1cc(NCCCCN=C(N)N)c2ncccc2c1
103
CCN(CC)c1ccc2nc3ccc(=[N+](CC)CC)cc-3oc2c1
-12.7

Per the reported HL-60(TB) leukemia data, COc1ccc(/C=N/C2=C(C#N)C(c3cccc(Cl)c3)c3c(ccc4ccccc34)O2)cc1 (stereo not drawn) has growth of -18.6

Per the reported HL-60(TB) leukemia data, CC1(C)Cc2c(cn(Cc3ccccc3)c2-c2ccccc2)-c2oncc21 has growth of 85.7

Per the reported HL-60(TB) leukemia data, O=c1c2ccccc2oc2ccc(OCCCCCN3CCCCCC3)cc12 has growth of 38

Per the reported HL-60(TB) leukemia data, Cc1cc(Br)nnc1Br has growth of 84.3

Per the reported HL-60(TB) leukemia data, Cc1c(C(=O)/C=C/c2csc3ccccc23)[n+](=O)c2ccccc2n1[O-] has growth of 67.7
